# System: FLT1
# Test Settings: concentration: 1 μM, replicates: in singlicate; n = 1;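 note: KINOMEscan kinase panel screen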
Readout Label: %Inh

// solved cases for %Inh follow
>>> print(df.to_string())
                                   molecule   tgt  readout_label  result
0  Cl.Cn1ccc(-c2cccc(Nc3ccnc4cc(-c5nccs5)ccc34)c2)n1  FLT1           %Inh      0%
1   Clc1cc(Nc2ncnc3cc[nH]c23)ccc1OCc1ccccn1  FLT1           %Inh      0%
2    Clc1cccc(-c2nc(Nc3ccncc3)c3ccccc3n2)c1  FLT1           %Inh     34%
3  COc1ccc(Nc2nccc(N3CCC(NC(=O)Nc4ccc5c(c4)OCO5)C3)n2)cc1 (stereo not drawn)  FLT1           %Inh     37%

Query: %Inh; subject: "C[C@H]1CC[C@@H](C(=O)Nc2ccccc2)CN1c1cc(-c2ccc3c(N)n[nH]c3c2)nc(N)n1"
13%

Which %Inh is listed for "O=C(Nc1ccccc1)Nc1ccc(Oc2ccc3nccn3n2)cc1" ?
51%

----------
Catalogue of %Inh values
# Test system: PIK3C2B
# Test Settings: concentration: 1 μM, replicates: in singlicate; n = 1

In [3]: df
Out[3]:
                         structure_notation  result
0    Oc1ccc2ncnc(Nc3ccc(OCc4ccccc4)cc3)c2c1      0%
1  Nc1nc(-c2ccc3c(N)n[nH]c3c2)cc(N2CCCCC2)n1      0%
2              Nc1n[nH]c2nnc(-c3ccccc3)cc12      0%

Looking for the measured %Inh of "Cn1ccc2ncnc(Oc3ccc(NC(=O)Nc4cccnc4)c(Cl)c3)c21" , can you help?
6%

Fill in the blank: the reported %Inh of "Cc1ccc(NC(=O)c2cccc(C#N)c2)cc1-c1ccc(C(=O)Nc2ccncc2)cc1" is ____.
5%

----------
# Test system: MAP3K15
# Test Settings: concentration: 1 μM, replicates: in singlicate; n = 1
The entries below are paired with their reported %Inh.
Give a bare numeral; the unit % is implied.

                                   compound  measurement_units  quantitative_readout
0  O=C(NCCCN1CCCC1=O)c1cnc(NCc2cc(Cl)ccc2Cl)nc1NC1CCNCC1                  %                     0
1  Cn1ccc2ncnc(Oc3ccc(NC(=O)Nc4cccnc4)c(Cl)c3)c21                  %                     0
2  Nc1n[nH]c2nnc(-c3ccccc3)cc12 [SB-517389]                  %                     0
3  Cl.Cl.c1ccc(-c2cc3ccncc3cc2OC2CCNCC2)cc1 [GSK1122999]                  %                     0
4  Nc1nc(-c2cccnc2)c(-c2ccnc3ccccc23)s1 [GW684083]                  %                     0
5  FC(F)(F)c1ccc(-c2nn3ncccc3c2-c2ccnc(Nc3cccc(C(F)(F)F)c3)n2)cc1 [GW828205]                  %                     0
6  COC(=O)c1c(-c2ccccc2)c2cc(Cl)ccc2c(=O)n1Cc1ccc(S(C)(=O)=O)cc1                  %                    20
7  Cn1ccc2ncnc(Nc3ccc(Oc4cccc(Cl)c4)c(Cl)c3)c21                  %                    11

Would you kindly look at the next entry?
Can you look up %Inh on MAP3K15 for Cc1ccc(NC(=O)c2cccc(C#N)c2)cc1-c1ccc(C(=O)Nc2ccncc2)cc1 [GSK1398463] ?
0

----------
# %Inh per entry
# System: FLT3-autoinhibited
# Test Settings: concentration: 1 μM, replicates: in singlicate; n = 1
# value in %; strip the unit string

Examples with their reported %Inh follow.
                                   molecule                 tgt  readout_label  measurement_units  quantitative_readout
0  FC(F)(F)c1cc(Nc2nccc(-c3c(-c4ccc(Cl)cc4)nn4ncccc34)n2)ccc1Cl  FLT3-autoinhibited           %Inh                  %                     0
1  O=C(Nc1ccccc1F)NC1CCN(c2ccnc(Nc3ccc(F)cc3)n2)C1 (stereo not drawn)  FLT3-autoinhibited           %Inh                  %                     0
2                CCn1c(-c2ccncc2)nc2cnccc21  FLT3-autoinhibited           %Inh                  %                    20
3  FC(F)(F)c1ccc(-c2nn3ncccc3c2-c2ccnc(Nc3cccc(C(F)(F)F)c3)n2)cc1  FLT3-autoinhibited           %Inh                  %                     0
4  Fc1ccc(Nc2nccc(-c3c(-c4ccc(Cl)cc4)nn4ncccc34)n2)cc1F  FLT3-autoinhibited           %Inh                  %                    14
5  CNc1nccc(-c2c(-c3ccc(F)cc3)ncn2C2CCN(C)CC2)n1  FLT3-autoinhibited           %Inh                  %                     0
6  O=C(Nc1n[nH]c2nc(-c3ccco3)c(Br)cc12)c1ccc(CN2CCCC2)cc1.O=C(O)[C@H](O)[C@@H](O)C(=O)O  FLT3-autoinhibited           %Inh                  %                    51
7  O=c1cc(N2CCOCC2)nc2n(Cc3cccc(Cl)c3)ccn12  FLT3-autoinhibited           %Inh                  %                    14

Reported %Inh for COc1ccc(Nc2nccc(N3CCC(NC(=O)c4cccc(NC(C)=O)c4)C3)n2)cc1 (stereo not drawn) : what is it?
0

Given "Cc1ccc(NC(=O)c2cccc(C#N)c2)cc1-c1ccc(C(=O)Nc2ccncc2)cc1" , state its recorded %Inh.
21

// %Inh lookup, key: "Nc1nc(-c2cccnc2)c(-c2ccnc3ccccc23)s1"
0

// %Inh lookup, key: "N#Cc1ccc(Oc2ccc(Nc3ncnc4cc[nH]c34)cc2Cl)cc1"
15

I have this molecule here, "c1ccc(-c2ccc3c(-c4ccnc(Nc5ccc6c(c5)OCCO6)n4)cnn3n2)cc1" , and I need its recorded %Inh.
18

Item under review: "Cn1ccc2ncnc(Oc3ccc(NC(=O)Nc4cccnc4)c(Cl)c3)c21" . Reported %Inh?
0

What value of %Inh has been reported for the following molecule? "Clc1ccc(-c2cc(-c3c[nH]nc3-c3ccccn3)ccn2)cc1"
0

Which %Inh value is on record for "Cn1cc(-c2ccc3c(c2)CCN3C(=O)Cc2cccc(C(F)(F)F)c2)c2c(N)ncnc21" ?
3

For "Fc1cccc(COc2ccc(Nc3ncnc4cc[nH]c34)cc2Cl)c1" , what is its reported %Inh?
16

Quick one: %Inh of "Nc1nc(-c2ccc3c(N)n[nH]c3c2)cc(N2CCCCC2)n1" ?
0

----------
# System: SBK1
# Test Settings: concentration: 1 μM, replicates: in singlicate; n = 1
Listed here: items and their measured %Inh.
Please reply with the bare figure in % and do not write the unit itself.

Below: 6 compounds and their reported %Inh.
                                   compound  measurement_units  quantitative_readout
0  CSc1ccc(NC2=C(c3ccccc3Cl)C(=O)NC2=O)cc1 [SB-342411]                  %                     1
1  COC(=O)c1c(-c2ccccc2)c2cc(Cl)ccc2c(=O)n1Cc1ccc(S(C)(=O)=O)cc1                  %                     0
2  FC(F)(F)c1ccc(-c2cc(-c3c[nH]nc3-c3ccccn3)ccn2)cc1 [GW599550]                  %                     8
3  OCCOCCn1ccc2ncnc(Nc3ccc(Oc4cccc(Cl)c4)c(Cl)c3)c21                  %                     0
4  Cn1ccc2ncnc(Oc3ccc(NC(=O)Nc4cccnc4)c(Cl)c3)c21                  %                     0
5   CCC(CC)(CC)n1cnc2c(N)ncnc21 [SKF-97620]                  %                    51

%Inh for Cl.Cn1ccc(-c2cccc(Nc3ccnc4cc(-c5nccs5)ccc34)c2)n1 [GW525701] ?
0

Look up %Inh for this compound: CCCc1ccc(S(=O)(=O)NC2CCN(c3ccnc(Nc4ccc(OC)cc4)n3)C2)cc1 (stereo not shown) [GSK1379737]
100

Can you look up the measured %Inh of Cc1ccc(C)c(NC(=O)NCCNc2ccnc(Nc3ccc(F)cc3)n2)c1 [GSK1379878] for me?
0

If you can, please state the reported %Inh value of CC(C)(C)c1ccc(-n2cnc3c(N)ncnc32)cc1 [SKF-97263] .
11

Could you tell me which %Inh is on file for COc1ccc(NC(=O)Nc2ccc(C)c(-c3ccc(C(=O)Nc4ccncc4)cc3)c2)cc1 [GSK1398475] ?
0

Fill in: %Inh of "O=C(NCCCN1CCCC1=O)c1cnc(NCc2cc(Cl)ccc2Cl)nc1NC1CCNCC1" is ___
0

Entry CCc1nc(-c2cccc(N(C)S(=O)(=O)c3ccccc3)c2)c(-c2ccnc(Nc3ccc(N4CCN(C(C)=O)CC4)nc3)n2)s1 [GSK1645895] : reported %Inh = ?
5

May I ask what %Inh has been recorded for CSc1nn2c(=O)cc(N3CCOCC3)nc2n1Cc1cccc(Cl)c1Cl [GSK2347225] ?
6

Value lookup for %Inh; key = O=c1cc(N2CCOCC2)nc2n(Cc3cccc(Cl)c3)ccn12 [GSK2296823]
32

What value of measured %Inh is listed for Oc1ccc2ncnc(Nc3ccc(OCc4ccccc4)cc3)c2c1 [GI262866] ?
5
